target: GABA-A receptor; alpha-1/beta-2/gamma-2 (Homo sapiens, UniProt P14867+P18507+P47870); test: Allosteric modulation of GABAA alpha1beta2gamma2 (unknown origin) expressed in Xenopus oocytes assessed as potentiation of GABA-induced current response at -80 mV holding potential incubated for 3 mins by two electrode voltage clamp method
Sequence (P14867 whole entry): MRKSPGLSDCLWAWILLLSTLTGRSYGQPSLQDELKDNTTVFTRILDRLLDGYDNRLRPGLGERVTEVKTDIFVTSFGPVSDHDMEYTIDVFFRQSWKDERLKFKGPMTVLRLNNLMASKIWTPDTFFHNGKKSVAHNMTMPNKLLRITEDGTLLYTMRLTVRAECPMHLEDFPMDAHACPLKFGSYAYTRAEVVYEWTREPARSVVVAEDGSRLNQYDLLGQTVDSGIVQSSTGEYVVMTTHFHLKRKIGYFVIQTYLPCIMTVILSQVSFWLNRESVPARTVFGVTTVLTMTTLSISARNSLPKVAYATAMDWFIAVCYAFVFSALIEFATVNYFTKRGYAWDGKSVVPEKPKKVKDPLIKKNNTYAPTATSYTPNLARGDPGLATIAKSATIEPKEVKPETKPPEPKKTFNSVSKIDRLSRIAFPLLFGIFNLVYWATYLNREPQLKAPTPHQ
Sequence (P47870 whole entry): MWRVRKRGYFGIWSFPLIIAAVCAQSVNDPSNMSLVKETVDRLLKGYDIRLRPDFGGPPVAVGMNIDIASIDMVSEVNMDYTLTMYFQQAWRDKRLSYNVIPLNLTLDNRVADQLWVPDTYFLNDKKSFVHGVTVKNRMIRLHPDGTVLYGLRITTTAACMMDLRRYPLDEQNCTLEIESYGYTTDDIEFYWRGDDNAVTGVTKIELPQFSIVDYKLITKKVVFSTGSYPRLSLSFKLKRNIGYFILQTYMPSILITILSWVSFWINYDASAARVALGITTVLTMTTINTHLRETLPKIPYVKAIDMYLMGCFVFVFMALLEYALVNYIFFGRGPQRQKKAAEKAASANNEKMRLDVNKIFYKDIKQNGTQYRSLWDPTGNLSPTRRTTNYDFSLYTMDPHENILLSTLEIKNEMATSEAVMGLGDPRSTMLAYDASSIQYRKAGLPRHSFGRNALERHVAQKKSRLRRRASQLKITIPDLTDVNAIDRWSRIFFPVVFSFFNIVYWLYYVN
Sequence (P18507 whole entry): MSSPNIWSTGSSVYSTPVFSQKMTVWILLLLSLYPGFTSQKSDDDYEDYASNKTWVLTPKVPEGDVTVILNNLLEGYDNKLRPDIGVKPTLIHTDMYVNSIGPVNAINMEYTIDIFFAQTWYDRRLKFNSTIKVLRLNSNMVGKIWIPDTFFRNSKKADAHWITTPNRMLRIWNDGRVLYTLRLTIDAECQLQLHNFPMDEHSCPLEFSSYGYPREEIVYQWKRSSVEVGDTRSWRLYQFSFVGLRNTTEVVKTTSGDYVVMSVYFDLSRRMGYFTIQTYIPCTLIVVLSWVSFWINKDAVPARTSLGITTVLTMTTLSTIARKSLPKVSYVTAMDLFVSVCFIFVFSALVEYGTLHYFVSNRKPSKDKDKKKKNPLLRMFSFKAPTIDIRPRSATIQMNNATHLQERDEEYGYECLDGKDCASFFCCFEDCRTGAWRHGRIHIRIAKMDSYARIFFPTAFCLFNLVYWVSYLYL
metric: EC50 (µM)
Answers are plain numbers, in µM.

According to the records, this compound CC(C)=CCc1c(O)cc2c(c1O)C(=O)[C@H](C)[C@@H](C)O2 displays EC50 of 4.5
